- System: Sphaerotheca cucurbitae
- assay-summary: Cucumber powdery mildew (CPM) control test
- Type: in vivo
- test-parameters: Table 9: monosaccharide 10% liquid preparation, no assistant, 10-fold dilution (monosaccharide 1%)
reported-property: preventive value CPM

OC[C@H]1OC(O)[C@H](O)[C@H](O)[C@@H]1O (stereo partly drawn) [D-allose]    (17)
O=C(CO)[C@H](O)[C@H](O)[C@H](O)CO [D-psicose]    (17)
O=C(CO)[C@H](O)[C@@H](O)[C@H](O)CO [D-sorbose]    (17)
O=C(CO)[C@H](O)[C@@H](O)[C@@H](O)CO [L-fructose]    (33)
O=C[C@@H](O)[C@@H](O)[C@@H](O)[C@H](O)CO [D-talose]    (17)
O=C[C@H](O)[C@@H](O)[C@@H](O)[C@H](O)CO [D-galactose]    (0)
